Activity values for the compounds below.
System: Eimeria maxima
Test: Anticoccidial activity against Eimeria maxima in chickens assessed as reduction of oocysts at 6.25 ppm measured after 8 days by ExMAC assay relative to untreated control
Format: functional
Parameters: scale not given: the % may be the effect or the level left

Worked examples, 5 compounds total:
COMPOUND	SYSTEM_NAME	Activity
Nc1nccc(-c2c(-c3ccc(F)cc3)nc3cc(C4CCN(CC5CC5)CC4)ccn23)n1	Eimeria maxima	80%
Nc1nccc(-c2c(-c3ccc(F)cc3)nc3cc(C4CCN(Cc5ccccc5)CC4)ccn23)n1	Eimeria maxima	80%
CN(C)CC(C)(C)c1ccn2c(-c3ccnc(N)n3)c(-c3ccc(F)cc3)nc2c1	Eimeria maxima	<50%
CC(C)CN1CCC(c2ccn3c(-c4ccnc(N)n4)c(-c4ccc(F)cc4)nc3c2)CC1	Eimeria maxima	<50%
CCCC(c1ccn2c(-c3ccnc(N)n3)c(-c3ccc(F)cc3)nc2c1)N(C)C (stereo unspecified)	Eimeria maxima	100%

Could you now look at the following compound, please?
What does the record list as Activity for `CN(C)c1ccn2c(-c3ccnc(N)n3)c(-c3ccc(F)cc3)nc2c1` ?
<50%

* * *

System: Eimeria tenella
Test: Anticoccidial activity against Eimeria tenella in chickens assessed as reduction of oocysts at 12.5 ppm measured after 8 days by ExMAC assay relative to untreated control
Format: functional
Set-up: scale not given: the % may be the effect or the level left
MEASUREMENT_NAME: Activity (%)
Hi! Could you send only the number? It should be in %, unit omitted.

Worked examples, 3 compounds total:
COMPOUND	MEASUREMENT_NAME	UNITS_OF_MEASURE	OBSERVED_RESULT
CN1CCC(c2ccn3c(-c4ccnc(N)n4)c(-c4ccc(F)cc4)nc3c2)CC1	Activity	%	100
CN(C)CC(C)(C)c1ccn2c(-c3ccnc(N)n3)c(-c3ccc(F)cc3)nc2c1	Activity	%	80
CN1CCN(c2ccn3c(-c4ccnc(N)n4)c(-c4ccc(F)cc4)nc3c2)CC1	Activity	%	80

What does the record list as Activity for `CN(C)CCc1ccn2c(-c3ccnc(N)n3)c(-c3ccc(F)cc3)nc2c1` ?
100

What does the record list as Activity for `CCCCCCN1CCC(c2ccn3c(-c4ccnc(N)n4)c(-c4ccc(F)cc4)nc3c2)CC1` ?
50

* * *

Activity values for the compounds below.
Test system: Eimeria maxima
Assay: Anticoccidial activity against Eimeria maxima in chickens assessed as reduction of oocysts at 25 ppm measured after 8 days by ExMAC assay relative to untreated control
Format: functional
Parameters: scale not given: the % may be the effect or the level left
Hi! Could you send only the number? It should be in %, unit omitted.

Worked examples, 2 compounds total:
COMPOUND	MEASUREMENT_NAME	UNITS_OF_MEASURE	OBSERVED_RESULT
Nc1nccc(-c2c(-c3ccc(F)cc3)nc3cc(C4CCN(CCO)CC4)ccn23)n1	Activity	%	50
CCC(CN(C)C)c1ccn2c(-c3ccnc(N)n3)c(-c3ccc(F)cc3)nc2c1 (stereo not drawn)	Activity	%	100

Could you now look at the following compound, please?
What does the record list as Activity for `CN1CCN(Cc2ccn3c(-c4ccnc(N)n4)c(-c4ccc(F)cc4)nc3c2)CC1` ?
80

* * *

Activity values for the compounds below.
System: Eimeria acervulina
Test: Anticoccidial activity against Eimeria acervulina in chickens assessed as reduction of oocysts at 8 ppm measured after 8 days by ExMAC assay relative to untreated control
Type: functional
Set-up: scale not given: the % may be the effect or the level left
Hi! Could you send only the number? It should be in %, unit omitted.

COMPOUND	UNITS_OF_MEASURE	Activity
CCC(c1ccn2c(-c3ccnc(N)n3)c(-c3ccc(F)cc3)nc2c1)N(C)C (centres undefined)	%	80
CCN1CCC(c2ccn3c(-c4ccnc(N)n4)c(-c4ccc(F)cc4)nc3c2)CC1	%	80
CN(C)C(C)(C)c1ccn2c(-c3ccnc(N)n3)c(-c3ccc(F)cc3)nc2c1	%	100

What does the record list as Activity for `CN1CCC(c2ccn3c(-c4ccnc(N)n4)c(-c4ccc(F)cc4)nc3c2)CC1` ?
80

* * *

Tested on: Eimeria tenella
Assay: Anticoccidial activity against Eimeria tenella in chickens assessed as reduction of oocysts at 6.25 ppm measured after 8 days by ExMAC assay relative to untreated control
Assay type: functional
Set-up: scale not given: the % may be the effect or the level left
MEASUREMENT_NAME: Activity (%)
Hi! Could you send only the number? It should be in %, unit omitted.

Worked examples, 2 compounds total:
COMPOUND	Activity, %
CC(C)CN1CCC(c2ccn3c(-c4ccnc(N)n4)c(-c4ccc(F)cc4)nc3c2)CC1	50
CN(C)CCc1ccn2c(-c3ccnc(N)n3)c(-c3ccc(F)cc3)nc2c1	100

What does the record list as Activity for `CN(C)Cc1ccn2c(-c3ccnc(N)n3)c(-c3ccc(F)cc3)nc2c1` ?
80

What does the record list as Activity for `Nc1nccc(-c2c(-c3ccc(F)cc3)nc3cc(C4CCN(CCO)CC4)ccn23)n1` ?
99

What does the record list as Activity for `CN(C)C(C)(C)c1ccn2c(-c3ccnc(N)n3)c(-c3ccc(F)cc3)nc2c1` ?
100

* * *

Activity values for the molecules below.
Test system: Eimeria mitis
Test: Anticoccidial activity against Eimeria mitis in chickens assessed as reduction of oocysts at 6.25 ppm measured after 8 days by ExMAC assay relative to untreated control
Assay type: functional
Design: scale not given: the % may be the effect or the level left

Worked examples, 5 molecules total:
ITEM_SMILES	SYSTEM_NAME	OBSERVED_RESULT
CN(C)c1ccn2c(-c3ccnc(N)n3)c(-c3ccc(F)cc3)nc2c1	Eimeria mitis	<50%
CN1CCN(c2ccn3c(-c4ccnc(N)n4)c(-c4ccc(F)cc4)nc3c2)CC1	Eimeria mitis	50%
CN(C)CC(C)(C)c1ccn2c(-c3ccnc(N)n3)c(-c3ccc(F)cc3)nc2c1	Eimeria mitis	<50%
Nc1nccc(-c2c(-c3ccc(F)cc3)nc3cc(C4CCN(CCO)CC4)ccn23)n1	Eimeria mitis	<50%
CC(C)CN1CCC(c2ccn3c(-c4ccnc(N)n4)c(-c4ccc(F)cc4)nc3c2)CC1	Eimeria mitis	<50%

Could you now look at the following molecule, please?
What does the record list as Activity for `CN(C)CCCc1ccn2c(-c3ccnc(N)n3)c(-c3ccc(F)cc3)nc2c1` ?
<50%

* * *

Activity values for the compounds below.
Test system: Eimeria mitis
Experiment: Anticoccidial activity against Eimeria mitis in chickens assessed as reduction of oocysts at 12.5 ppm measured after 8 days by ExMAC assay relative to untreated control
Type: functional
Design: scale not given: the % may be the effect or the level left
Hi! Could you send only the number? It should be in %, unit omitted.

ITEM_SMILES	Activity [%]
Nc1nccc(-c2c(-c3ccc(F)cc3)nc3cc(C4CCN(CCO)CC4)ccn23)n1	80

Could you now look at the following compound, please?
What does the record list as Activity for `Nc1nccc(-c2c(-c3ccc(F)cc3)nc3cc(C4CCN(CC5CC5)CC4)ccn23)n1` ?
80

* * *

Test system: Eimeria maxima
Assay: Anticoccidial activity against Eimeria maxima in chickens assessed as reduction of oocysts at 12.5 ppm measured after 8 days by ExMAC assay relative to untreated control
Type: functional
Parameters: scale not given: the % may be the effect or the level left
MEASUREMENT_NAME: Activity (%)
Hi! Could you send only the number? It should be in %, unit omitted.

Worked examples, 4 compounds total:
COMPOUND	SYSTEM_NAME	MEASUREMENT_NAME	OBSERVED_RESULT
CCC(c1ccn2c(-c3ccnc(N)n3)c(-c3ccc(F)cc3)nc2c1)N(C)C (stereo not given)	Eimeria maxima	Activity	100
Nc1nccc(-c2c(-c3ccc(F)cc3)nc3cc(C4CCN(Cc5ccccc5)CC4)ccn23)n1	Eimeria maxima	Activity	80
CN(C)Cc1ccn2c(-c3ccnc(N)n3)c(-c3ccc(F)cc3)nc2c1	Eimeria maxima	Activity	80
CCN(CC)Cc1ccn2c(-c3ccnc(N)n3)c(-c3ccc(F)cc3)nc2c1	Eimeria maxima	Activity	80

Could you now look at the following compound, please?
What does the record list as Activity for `CC(C)CN1CCC(c2ccn3c(-c4ccnc(N)n4)c(-c4ccc(F)cc4)nc3c2)CC1` ?
100

* * *

Test system: Eimeria mitis
Assay: Anticoccidial activity against Eimeria mitis in chickens assessed as reduction of oocysts at 6.25 ppm measured after 8 days by ExMAC assay relative to untreated control
Type: functional
Set-up: scale not given: the % may be the effect or the level left
MEASUREMENT_NAME: Activity (%)
Hi! Could you send only the number? It should be in %, unit omitted.

COMPOUND	UNITS_OF_MEASURE	Activity
CN(C)C(C)(C)c1ccn2c(-c3ccnc(N)n3)c(-c3ccc(F)cc3)nc2c1	%	80
Nc1nccc(-c2c(-c3ccc(F)cc3)nc3cc(C4CCN(CC5CC5)CC4)ccn23)n1	%	80
CCN(CC)Cc1ccn2c(-c3ccnc(N)n3)c(-c3ccc(F)cc3)nc2c1	%	50

Hello, I am looking for reported Activity with Eimeria mitis for CC(c1ccn2c(-c3ccnc(N)n3)c(-c3ccc(F)cc3)nc2c1)N(C)C (stereo not given) . Could you help?
100
